Molecular target: DNA polymerase theta (Homo sapiens, UniProt O75417)
Sequence (O75417 whole entry): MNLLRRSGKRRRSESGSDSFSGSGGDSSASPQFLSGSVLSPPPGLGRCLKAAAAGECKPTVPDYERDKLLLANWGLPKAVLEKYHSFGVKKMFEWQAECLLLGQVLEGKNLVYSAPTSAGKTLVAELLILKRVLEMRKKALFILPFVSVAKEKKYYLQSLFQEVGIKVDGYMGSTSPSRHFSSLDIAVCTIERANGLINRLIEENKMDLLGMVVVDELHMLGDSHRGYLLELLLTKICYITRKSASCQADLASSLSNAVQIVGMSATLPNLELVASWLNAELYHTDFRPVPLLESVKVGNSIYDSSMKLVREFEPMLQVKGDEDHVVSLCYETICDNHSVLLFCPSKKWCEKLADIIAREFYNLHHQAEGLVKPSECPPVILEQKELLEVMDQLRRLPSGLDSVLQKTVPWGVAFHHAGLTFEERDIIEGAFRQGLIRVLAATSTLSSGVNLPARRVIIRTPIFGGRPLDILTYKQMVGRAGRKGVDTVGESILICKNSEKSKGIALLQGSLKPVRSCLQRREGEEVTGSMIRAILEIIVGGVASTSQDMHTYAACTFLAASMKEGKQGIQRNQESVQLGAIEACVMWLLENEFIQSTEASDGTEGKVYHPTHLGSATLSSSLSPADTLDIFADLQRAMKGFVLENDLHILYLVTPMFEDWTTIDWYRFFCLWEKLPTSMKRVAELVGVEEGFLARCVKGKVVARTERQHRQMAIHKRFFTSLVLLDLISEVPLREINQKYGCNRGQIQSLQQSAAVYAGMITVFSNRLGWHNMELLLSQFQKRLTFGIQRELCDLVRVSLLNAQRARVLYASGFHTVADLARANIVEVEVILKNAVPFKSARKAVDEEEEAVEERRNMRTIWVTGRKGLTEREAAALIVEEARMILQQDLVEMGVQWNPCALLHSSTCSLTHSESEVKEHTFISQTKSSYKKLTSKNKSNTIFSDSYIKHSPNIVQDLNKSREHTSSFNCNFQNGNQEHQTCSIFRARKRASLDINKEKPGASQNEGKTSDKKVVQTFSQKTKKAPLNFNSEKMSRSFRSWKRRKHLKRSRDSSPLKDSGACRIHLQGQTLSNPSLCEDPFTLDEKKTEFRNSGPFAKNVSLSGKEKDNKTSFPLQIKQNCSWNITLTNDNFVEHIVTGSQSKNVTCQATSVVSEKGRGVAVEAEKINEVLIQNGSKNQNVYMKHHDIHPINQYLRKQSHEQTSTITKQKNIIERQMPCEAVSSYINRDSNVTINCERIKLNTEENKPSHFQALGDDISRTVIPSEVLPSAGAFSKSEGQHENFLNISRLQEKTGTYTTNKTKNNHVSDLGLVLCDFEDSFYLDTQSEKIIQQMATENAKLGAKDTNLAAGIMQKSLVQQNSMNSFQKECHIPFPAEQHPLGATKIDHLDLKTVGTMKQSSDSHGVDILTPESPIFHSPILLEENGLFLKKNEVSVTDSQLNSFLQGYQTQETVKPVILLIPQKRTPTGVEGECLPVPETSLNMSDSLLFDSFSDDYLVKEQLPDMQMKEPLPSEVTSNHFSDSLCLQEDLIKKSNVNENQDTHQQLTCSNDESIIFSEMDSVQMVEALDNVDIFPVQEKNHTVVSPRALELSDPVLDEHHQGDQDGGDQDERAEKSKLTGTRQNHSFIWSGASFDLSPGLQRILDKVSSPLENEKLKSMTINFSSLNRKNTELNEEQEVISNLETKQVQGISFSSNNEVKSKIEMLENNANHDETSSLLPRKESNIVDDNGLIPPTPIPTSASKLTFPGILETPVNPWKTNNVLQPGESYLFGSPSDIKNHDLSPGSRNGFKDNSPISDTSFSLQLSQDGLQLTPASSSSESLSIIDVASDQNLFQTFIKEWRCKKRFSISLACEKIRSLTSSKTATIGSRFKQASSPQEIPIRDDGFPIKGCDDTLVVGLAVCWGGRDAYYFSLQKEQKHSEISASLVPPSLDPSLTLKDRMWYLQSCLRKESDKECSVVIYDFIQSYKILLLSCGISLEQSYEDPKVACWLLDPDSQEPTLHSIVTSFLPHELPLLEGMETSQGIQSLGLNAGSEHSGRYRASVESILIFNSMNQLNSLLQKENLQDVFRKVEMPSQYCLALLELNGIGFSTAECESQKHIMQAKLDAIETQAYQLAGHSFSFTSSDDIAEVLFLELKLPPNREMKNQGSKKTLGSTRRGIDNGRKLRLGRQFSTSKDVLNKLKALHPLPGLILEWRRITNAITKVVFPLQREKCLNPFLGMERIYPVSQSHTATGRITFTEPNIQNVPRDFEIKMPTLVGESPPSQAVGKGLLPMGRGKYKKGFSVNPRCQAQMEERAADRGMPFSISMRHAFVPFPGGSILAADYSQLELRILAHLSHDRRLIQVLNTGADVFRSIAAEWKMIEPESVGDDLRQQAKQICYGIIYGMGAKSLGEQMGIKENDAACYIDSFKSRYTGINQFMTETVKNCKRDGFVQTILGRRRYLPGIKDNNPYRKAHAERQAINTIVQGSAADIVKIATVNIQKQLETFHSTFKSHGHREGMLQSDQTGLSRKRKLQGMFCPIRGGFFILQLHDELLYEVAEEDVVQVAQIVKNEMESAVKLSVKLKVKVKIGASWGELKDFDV
Assay: Inhibition of DNA polymerase theta mediated TMEJ repair activity in HEK293 cells incubated for 24 hrs by Nano-glo luciferase assay
Assay type: cell-based
Metric: pIC50
Would you please state pIC50, meaning minus log10 of the concentration in mol/L, as a bare number?

// query Please report the recorded pIC50 for `COc1ccc(Cl)cc1-c1cc(C)ncc1C(=O)Nc1nnc(OCC2CCN(C(=O)c3cc(Cc4n[nH]c(=O)c5ccccc45)ccc3F)CC2)s1` .
// result 7.06

---

Molecular target: UniProt:O75417
Assay: Inhibition of DNA polymerase theta (unknown origin) ATPase activity incubated for 60 mins in presence of ATP by ADP-glo kinase assay
Metric: pIC50
Would you please state pIC50, meaning minus log10 of the concentration in mol/L, as a bare number?

Here is how some compounds turned out for pIC50.
>>> df
                                  structure  metric  observed_value
0  COc1ccccc1-c1cnccc1C(=O)Nc1nnc(OC2CC3(C2)CN(C(=O)c2cc(Cc4n[nH]c(=O)c5ccccc45)ccc2F)C3)s1   pIC50            6.57
1  COc1ccccc1-c1cnccc1C(=O)Nc1nnc(OC2CC3(CCN(C(=O)c4cc(Cc5n[nH]c(=O)c6ccccc56)ccc4F)CC3)C2)s1   pIC50            6.78

Below: the item to evaluate.
// query Please report the recorded pIC50 for `COc1ccc(Cl)cc1-c1cc(C)ncc1C(=O)Nc1nnc(OCC2CCN(C(=O)c3cc(Cc4n[nH]c(=O)c5ccccc45)ccc3F)CC2)s1` .
// result 7.34
